Tested on: A549
Assay: Antiproliferative activity against human A549 cells after 120 hrs by MTT assay
Type: functional, cell-based
Settings: A549, 120 h
measurement-kind: IC50 (nM)

- O=C(Nc1ccc([N+](=O)[O-])cc1Cl)c1cc(Cl)ccc1O [NICLOSAMIDE]: 400

---

Tested on: PC-3
Assay: Antiproliferative activity against human PC3 cells at 30 uM after 120 hrs by MTT assay relative to DMSO
Format: functional
measurement-kind: fold change (FC)

• CCOC(=O)C(C)(C)Oc1ccc(Cl)cc1 [CLOFIBRATE] = 1.021
• CC[C@H](C)C(=O)O[C@H]1C[C@@H](C)C=C2C=C[C@H](C)[C@H](CC[C@@H]3C[C@@H](O)CC(=O)O3)[C@H]21 = 0.25
• CC(C)c1nc(N(C)S(C)(=O)=O)nc(-c2ccc(F)cc2)c1/C=C/[C@@H](O)C[C@@H](O)CC(=O)O = 0.491
• CC(C)c1c(C(=O)Nc2ccccc2)c(-c2ccccc2)c(-c2ccc(F)cc2)n1CC[C@@H](O)C[C@@H](O)CC(=O)O = 0.264
• CC(=O)N1CCN(c2ccc(OCC3COC(Cn4ccnc4)(c4ccc(Cl)cc4Cl)O3)cc2)CC1 (stereo unspecified) = 1.066
• CC(C)n1c(/C=C/C(O)CC(O)CC(=O)O)c(-c2ccc(F)cc2)c2ccccc21 (stereo unspecified) = 0.255
